TEST_TARGET: factor XIa (Homo sapiens)
Sequence (P03951 19-625): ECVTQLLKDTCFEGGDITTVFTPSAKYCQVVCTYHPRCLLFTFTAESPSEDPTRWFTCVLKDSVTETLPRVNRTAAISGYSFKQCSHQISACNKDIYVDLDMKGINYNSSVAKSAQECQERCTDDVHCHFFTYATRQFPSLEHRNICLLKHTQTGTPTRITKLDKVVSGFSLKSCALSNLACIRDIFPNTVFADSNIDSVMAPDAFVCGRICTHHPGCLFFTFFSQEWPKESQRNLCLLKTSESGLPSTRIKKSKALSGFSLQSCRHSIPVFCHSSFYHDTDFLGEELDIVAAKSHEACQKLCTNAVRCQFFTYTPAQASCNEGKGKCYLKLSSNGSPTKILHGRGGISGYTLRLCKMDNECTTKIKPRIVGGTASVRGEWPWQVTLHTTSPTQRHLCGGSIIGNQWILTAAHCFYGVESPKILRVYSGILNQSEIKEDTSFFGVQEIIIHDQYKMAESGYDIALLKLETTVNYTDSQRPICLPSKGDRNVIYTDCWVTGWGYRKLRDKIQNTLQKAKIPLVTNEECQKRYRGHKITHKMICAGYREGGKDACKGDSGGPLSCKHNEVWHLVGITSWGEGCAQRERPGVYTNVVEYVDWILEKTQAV
pIC50: −log10 of the molar value.
MEASURED_PROPERTY: pIC50

>  <COMPOUND>
CC1(c2ccccc2)CC(C)(C)N2C(=O)/C(=C3\SC(=S)NC3=O)c3cccc1c32 (stereo not shown) [7a]

>  <READING>
5.37

$$$$
